# MEASUREMENT_PROTOCOL: Tissue bio-distribution in mice
# Type: in vivo
# SETTINGS: both, mouse, liver, po, 5 mg/kg
ASSAY_READOUT: concentration at 2 h (ng/g)

>>> experimental_value("O=C(NC(=S)Nc1ccc(-c2nc3ccccc3o2)cc1)c1ccc2ccccc2c1 [PDS-0330]")
17

###

# MEASUREMENT_PROTOCOL: Plasma pharmacokinetics in mice
# Format: in vivo
# SETTINGS: both, mouse, plasma, ip, 5 mg/kg, AUC0−∞, PDS-0330 IP 5mg/kg, mice
ASSAY_READOUT: AUC(0-inf)

>>> experimental_value("O=C(NC(=S)Nc1ccc(-c2nc3ccccc3o2)cc1)c1ccc2ccccc2c1")
"442 ng·h/mL"

###

# MEASUREMENT_PROTOCOL: Plasma pharmacokinetics in mice
# Type: in vivo
# SETTINGS: both, mouse, plasma, po, 5 mg/kg
ASSAY_READOUT: Vd/F (L/kg)

>>> experimental_value("O=C(NC(=S)Nc1ccc(-c2nc3ccccc3o2)cc1)c1ccc2ccccc2c1")
1100

###

# MEASUREMENT_PROTOCOL: Plasma pharmacokinetics in mice
# Type: in vivo
# SETTINGS: both, mouse, plasma, po, 5 mg/kg
ASSAY_READOUT: AUC(0-t)

>>> experimental_value("O=C(NC(=S)Nc1ccc(-c2nc3ccccc3o2)cc1)c1ccc2ccccc2c1 [PDS-0330]")
"53.4 ng·h/mL"

###

# MEASUREMENT_PROTOCOL: Tissue bio-distribution in mice
# Type: in vivo
# SETTINGS: both, mouse, lungs, po, 5 mg/kg
ASSAY_READOUT: concentration at 24 h

>>> experimental_value("O=C(NC(=S)Nc1ccc(-c2nc3ccccc3o2)cc1)c1ccc2ccccc2c1 [PDS-0330]")
"519 ng/g"

###

# MEASUREMENT_PROTOCOL: Tissue bio-distribution in mice
# Type: in vivo
# SETTINGS: mouse, lungs, po, 5 mg/kg
ASSAY_READOUT: concentration at 2 h (ng/g)

>>> experimental_value("O=C(NC(=S)Nc1ccc(-c2nc3ccccc3o2)cc1)c1ccc2ccccc2c1 [PDS-0330]")
5

###

# MEASUREMENT_PROTOCOL: Plasma pharmacokinetics in mice
# Format: in vivo
# SETTINGS: both, mouse, plasma, po, 5 mg/kg
ASSAY_READOUT: Tmax (min)

>>> experimental_value("O=C(NC(=S)Nc1ccc(-c2nc3ccccc3o2)cc1)c1ccc2ccccc2c1")
24

###

# MEASUREMENT_PROTOCOL: Plasma pharmacokinetics in mice
# Format: in vivo
# SETTINGS: both, mouse, plasma, po, 5 mg/kg, AUC0−∞, PDS-0330 PO 5mg/kg, mice
ASSAY_READOUT: AUC(0-inf) (µg·h/mL)

>>> experimental_value("O=C(NC(=S)Nc1ccc(-c2nc3ccccc3o2)cc1)c1ccc2ccccc2c1 [PDS-0330]")
0.086

###

# MEASUREMENT_PROTOCOL: Tissue bio-distribution in mice
# Format: in vivo
# SETTINGS: mouse, lungs, ip, 5 mg/kg
ASSAY_READOUT: concentration at 8 h (ng/g)

>>> experimental_value("O=C(NC(=S)Nc1ccc(-c2nc3ccccc3o2)cc1)c1ccc2ccccc2c1 [PDS-0330]")
76.9

###

# MEASUREMENT_PROTOCOL: Plasma pharmacokinetics in mice
# Assay type: in vivo
# SETTINGS: both, C57BL6, mouse, plasma, iv, 1 mg/kg
ASSAY_READOUT: MRT (h)

>>> experimental_value("COc1cc2ccccc2cc1C(=O)NC(=S)Nc1ccc(-c2nc3ccccc3[nH]2)cc1")
5.6

###

# MEASUREMENT_PROTOCOL: Plasma pharmacokinetics in mice
# Format: in vivo
# SETTINGS: both, C57BL6, mouse, plasma, iv, 1 mg/kg, C0, I-6 1mg/kg intravenous, mice
ASSAY_READOUT: C0 (µg/mL)

>>> experimental_value("COc1cc2ccccc2cc1C(=O)NC(=S)Nc1ccc(-c2nc3ccccc3[nH]2)cc1")
0.798

###

# MEASUREMENT_PROTOCOL: Plasma pharmacokinetics in mice
# Assay type: in vivo
# SETTINGS: both, mouse, plasma, po, 5 mg/kg
Overview of reported Cmax across a group of compounds:
ASSAY_READOUT: Cmax (ng/mL)

>>> experimental_value("COc1cc2ccccc2cc1C(=O)NC(=S)Nc1ccc(-c2nc3ccccc3[nH]2)cc1 [I-6]")
2.8
>>> experimental_value("O=C(NC(=S)Nc1ccc(-c2nc3ccccc3o2)cc1)c1ccc2ccccc2c1 [PDS-0330]")
30.8

###

# MEASUREMENT_PROTOCOL: Plasma pharmacokinetics in mice
# Type: in vivo
# SETTINGS: both, mouse, plasma, po, 5 mg/kg
ASSAY_READOUT: half-life (h)

>>> experimental_value("O=C(NC(=S)Nc1ccc(-c2nc3ccccc3o2)cc1)c1ccc2ccccc2c1 [PDS-0330]")
14.5
